I'd appreciate it if you could supply protein stability index values for the items below.
B1: FAM9B (parent)
chain: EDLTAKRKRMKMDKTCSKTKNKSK

Variants of: B1
Assay: protein stability index of a GFP-peptide fusion (GPS, HEK-293T) (PSI 1-6); higher = more stable;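 also: lentivirally expressed fusions sorted by FACS into six bins by GFP to DsRed ratio, PSI derived from sequencing read proportions per bin multiplied by bin number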
Conditions: c terminus: a fixed tail appended

Prompt line: Reported protein stability index, variant "L3R" : ____
Response line: 5.17

Prompt line: Try "K24E" next.
Response line: 5.11

Prompt line: Now the same for "K20I"
Response line: 4.75

Prompt line: And the next one, "K14F" ?
Response line: 4.48

Prompt line: Similarly, "D13G" ?
Response line: 5.48

Prompt line: And then "M10A" , what is it?
Response line: 4.25

Prompt line: Can you handle "K24V" next?
Response line: 4.62

Prompt line: Try "M12V" next.
Response line: 4.45

Prompt line: Follow-up item: "M12I"
Response line: 5.03

Prompt line: // next record "T19H"
Response line: 5.02

Prompt line: Lookup "R7F"
Response line: 4.69

Prompt line: Next entry: "D13W"
Response line: 4.8

Prompt line: Next variant: "E1M"
Response line: 4.15

Prompt line: Proceed to "R9D"
Response line: 5.64
